# Assay protocol: JC-1 mitochondrial signal, unstimulated HepG2 cells – cell-based, JC-1 fluorescence, 24 h, 100 nL compound, profiling panel (AID 1167); further: test concentration not given here
# Test parameters: HepG2 mitochondrial potential, higher = more signal
Reported property: z-score
Just the number.

Here's what some known entries look like.
{"columns": ["Compound", "z-score"],
 "data": [
  ["CC(C)N1C(=O)C[C@@](C(=O)NCCN2CCOCC2)(c2ccc([N+](=O)[O-])cc2)[C@H]1c1ccc(CO)cc1", 0.0432],
  ["COc1ccc([Si](C)(C)[C@@H]2[C@@H](CC(=O)N3Cc4ccccc4C[C@H]3CO)O[C@]3(C(=O)N(Cc4cccc(N5CCOC5=O)c4)c4ccccc43)[C@H]2C)cc1", -0.0282],
  ["CC=CC(O)C1C=CC2C(=O)NC(=O)C2N1Nc1ccc(Cl)cc1Cl (stereo not drawn)", -2.04]
]}

Read off the recorded z-score for COc1ccc(C#Cc2ccc3c(c2)[C@]2(C(=O)N3)[C@H](C(=O)O)[C@H]3C(=O)O[C@H](c4ccccc4)[C@H](c4ccccc4)N3[C@@H]2c2ccccc2OCCO)cc1
-3.99

Quick one: give measured z-score for CC(C)c1nc2cc(Br)ccc2c(=O)o1
-0.0593

Respond only with z-score recorded for O=C(O)[C@H](Cc1ccccc1)n1cc(C2(O)CCCCC2)nn1
-1.14

Report measured z-score; entry is COCCCNC(=O)[C@@]1(CCS(=O)(=O)c2ccccc2)COC(c2ccc(OCCCO)cc2)=N1
-0.903

Please report the measured z-score for COCCOC(=O)N1C(=O)[C@@]2(c3ccccc31)[C@H](c1ccc(O)cc1)N1[C@H](c3ccccc3)[C@H](c3ccccc3)OC(=O)[C@H]1[C@@H]2C(=O)N1CCCCCCC1
-1.25
